Biological target: MMP-9-FL (gelatinase B full length enzyme) (Homo sapiens, UniProt P14780)
Construct: MMP-9-FL (gelatinase B full length enzyme)
Sequence (P14780 94-707): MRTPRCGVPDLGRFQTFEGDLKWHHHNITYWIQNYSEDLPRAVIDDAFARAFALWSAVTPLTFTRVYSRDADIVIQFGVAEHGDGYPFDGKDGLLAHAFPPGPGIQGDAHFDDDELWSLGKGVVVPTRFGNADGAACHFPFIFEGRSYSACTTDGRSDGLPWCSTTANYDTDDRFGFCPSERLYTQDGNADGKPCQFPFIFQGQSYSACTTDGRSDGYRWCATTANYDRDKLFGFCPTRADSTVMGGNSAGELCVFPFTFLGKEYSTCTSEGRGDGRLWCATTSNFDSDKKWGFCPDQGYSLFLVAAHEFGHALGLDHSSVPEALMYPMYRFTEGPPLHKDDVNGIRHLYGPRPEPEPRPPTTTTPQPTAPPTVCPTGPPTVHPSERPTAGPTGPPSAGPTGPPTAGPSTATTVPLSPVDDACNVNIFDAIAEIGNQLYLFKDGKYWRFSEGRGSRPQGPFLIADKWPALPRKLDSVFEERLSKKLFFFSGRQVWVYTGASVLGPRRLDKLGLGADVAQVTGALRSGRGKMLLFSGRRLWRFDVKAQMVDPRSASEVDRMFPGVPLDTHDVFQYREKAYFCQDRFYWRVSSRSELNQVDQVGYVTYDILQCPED
Assay: MMP inhibition, thiopeptolide substrate assay
Format: biochemical
Conditions: thiopeptolide substrate Ac-Pro-Leu-Gly-thioester-Leu-Leu-Gly-OEt
Documented IC50 across a set of molecules
Just the number plus its unit, please.

CN1C(=O)N(CC(CC(=O)c2ccc3c4c(oc3c2)CCCC4)C(=O)O)C(=O)C1(C)C (centres unmarked) [Example 3] | 14 µM

For the next question, use this molecule.
Request the reported IC50 associated with O=C(O)CCC(=NO)c1ccc2c3c(oc2c1)CCCC3 [Example 1] 32 µM
